Reported pIC50 on GCN2 (Homo sapiens (Human)) for assorted compounds, compiled from publications.
pIC50: −log10 of the molar value.

• FC(F)(F)c1ccc2ncc(-c3nccc(N4CCNC(c5cn[nH]c5)C4)n3)n2c1 (stereo not shown) = > 8.00
• CC1(C(N)=O)CCN(c2ccnc(-c3cnc4ccc(C(F)(F)F)cn34)n2)CC1 = 7.00 to 8.00

Task item: If you can, please state the reported pIC50 value of Nc1ncc2cc(-c3c(F)ccc(NS(=O)(=O)c4cc(Cl)ccc4Cl)c3F)ccc2n1 .
Reply: > 8.00

Task item: If you can, please state the reported pIC50 value of CC1(C)C(=O)Nc2cc(Nc3nc4c(-c5cn[nH]c5)nccn4n3)ccc21 .
Reply: 5.52 to 6.52

Task item: If you can, please state the reported pIC50 value of CN1C(=O)Cc2cc(Nc3nc4cncc(-c5cnn(CCN6CCOCC6)c5)n4n3)ccc21 .
Reply: 5.30 to 6.00

Task item: If you can, please state the reported pIC50 value of CS(=O)(=O)c1ccc(-c2nccn3nc(Nc4ccc(N5CCOCC5)cc4)nc23)cc1 .
Reply: 5.52 to 6.52

Task item: If you can, please state the reported pIC50 value of Fc1cccc(Nc2nc3cnc(Cl)cn3n2)c1 .
Reply: 5.30 to 6.00

Task item: If you can, please state the reported pIC50 value of O=C(c1ccc(-c2nccn3nc(Nc4ccc(N5CCOCC5)cc4)nc23)cc1)N1CCOCC1 .
Reply: 4.30 to 5.52

Task item: If you can, please state the reported pIC50 value of C[C@@H]1CN(c2nccc(-c3cnc4ccc(C(F)(F)F)cn34)n2)C[C@@H](c2cn[nH]c2)O1 .
Reply: > 8.00

Task item: If you can, please state the reported pIC50 value of OCc1cn(C2CCCN(c3ccnc(-c4cnc5ccc(C(F)(F)F)cn45)n3)C2)nn1 (stereo not shown) .
Reply: 6.00 to 7.00

---

pIC50: −log10 of the molar value.
Reported pIC50 on UniProt:Q9P2K8 for assorted compounds, compiled from publications.

Here's what some known entries look like.
- Cn1cc(Nc2nc3c(-c4cnn(C)c4)nccn3n2)cn1: 4.30 to 5.52
- C[C@@H]1CN(c2ccnc(-c3cnc4ccc(C(F)(F)F)cn34)n2)C[C@H](C)N1C(=O)C1CC1: 6.00 to 7.00
- N#C[C@H]1CCCN(c2ccnc(-c3cnc4ccc(C(F)(F)F)cn34)n2)C1: 7.00 to 8.00
- Cc1nnc(C)n1[C@H]1C[C@H](C)CN(c2nccc(-c3cnc4ccc(C(F)(F)F)cn34)n2)C1: 6.00 to 7.00
- Cc1nn(C)cc1[C@H]1CN(c2nccc(-c3cnc4ccc(C(F)(F)F)cn34)n2)C[C@@H](C)O1: 7.00 to 8.00
- Cn1cc(-c2cncc3nc(Nc4ccc5c(c4)OCCO5)nn23)cn1: > 6.00

Task item: Checklist item: pIC50 tested on UniProt:Q9P2K8, entry Cn1cc(Nc2ncc3nc(N)n(-c4ccc(-c5cnn(C6CCNCC6)c5)cc4)c3n2)cn1 , value?
Reply: 5.30 to 6.00

Task item: Checklist item: pIC50 tested on UniProt:Q9P2K8, entry C[C@@H]1CN(c2nccc(-c3cnc4ccc(Cl)cn34)n2)C[C@H](c2cn[nH]c2)O1 , value?
Reply: > 8.00

---

pIC50: −log10 of the molar value.
Reported pIC50 on GCN2 (Homo sapiens (Human), UniProt Q9P2K8) for assorted compounds, compiled from publications.
Sequence (Q9P2K8 whole entry, species assumed): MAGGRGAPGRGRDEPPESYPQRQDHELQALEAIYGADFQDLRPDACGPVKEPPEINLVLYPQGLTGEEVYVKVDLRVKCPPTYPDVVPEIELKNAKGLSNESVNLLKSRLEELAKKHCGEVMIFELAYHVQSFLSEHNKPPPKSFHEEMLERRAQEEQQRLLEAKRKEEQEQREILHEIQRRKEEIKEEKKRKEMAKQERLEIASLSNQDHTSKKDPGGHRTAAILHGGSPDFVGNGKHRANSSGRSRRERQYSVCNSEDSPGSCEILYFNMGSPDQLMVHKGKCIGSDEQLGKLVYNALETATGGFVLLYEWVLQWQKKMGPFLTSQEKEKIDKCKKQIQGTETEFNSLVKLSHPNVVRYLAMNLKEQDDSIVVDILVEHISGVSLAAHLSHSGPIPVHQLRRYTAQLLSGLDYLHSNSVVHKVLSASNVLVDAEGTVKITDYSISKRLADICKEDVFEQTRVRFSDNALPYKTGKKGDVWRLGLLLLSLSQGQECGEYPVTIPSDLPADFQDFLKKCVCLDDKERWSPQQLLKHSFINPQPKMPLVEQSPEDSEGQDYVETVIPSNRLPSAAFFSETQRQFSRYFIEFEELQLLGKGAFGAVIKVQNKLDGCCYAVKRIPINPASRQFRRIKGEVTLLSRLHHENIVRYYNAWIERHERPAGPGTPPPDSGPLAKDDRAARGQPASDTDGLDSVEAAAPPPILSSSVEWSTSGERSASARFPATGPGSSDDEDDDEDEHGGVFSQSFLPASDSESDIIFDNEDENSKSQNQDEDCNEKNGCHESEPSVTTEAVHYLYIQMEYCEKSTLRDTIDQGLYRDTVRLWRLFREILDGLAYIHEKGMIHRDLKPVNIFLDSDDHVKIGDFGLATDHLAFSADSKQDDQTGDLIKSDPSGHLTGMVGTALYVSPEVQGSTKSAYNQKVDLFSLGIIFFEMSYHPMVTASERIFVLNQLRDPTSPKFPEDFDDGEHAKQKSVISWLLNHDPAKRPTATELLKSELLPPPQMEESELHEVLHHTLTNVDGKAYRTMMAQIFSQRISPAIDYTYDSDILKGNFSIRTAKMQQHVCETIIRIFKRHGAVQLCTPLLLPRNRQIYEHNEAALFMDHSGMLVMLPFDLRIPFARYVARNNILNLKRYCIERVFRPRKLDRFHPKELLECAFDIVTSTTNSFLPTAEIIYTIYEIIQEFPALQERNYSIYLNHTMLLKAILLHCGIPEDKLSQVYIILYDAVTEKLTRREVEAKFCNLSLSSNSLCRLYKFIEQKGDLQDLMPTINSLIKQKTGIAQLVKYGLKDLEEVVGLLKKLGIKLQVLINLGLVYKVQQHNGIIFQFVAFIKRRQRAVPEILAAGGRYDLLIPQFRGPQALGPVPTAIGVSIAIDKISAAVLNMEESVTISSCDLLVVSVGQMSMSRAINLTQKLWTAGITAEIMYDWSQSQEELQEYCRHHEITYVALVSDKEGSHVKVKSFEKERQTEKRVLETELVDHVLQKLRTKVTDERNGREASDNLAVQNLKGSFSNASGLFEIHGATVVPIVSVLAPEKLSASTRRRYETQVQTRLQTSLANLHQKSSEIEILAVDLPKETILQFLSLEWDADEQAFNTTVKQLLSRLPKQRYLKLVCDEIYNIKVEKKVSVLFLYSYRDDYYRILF

• COc1cccc(Nc2nc3cnc(C#N)cn3n2)c1 = 5.30 to 6.00
• FC(F)(F)c1ccc2ncc(-c3nccc(N4CCOC5(CNC5)C4)n3)n2c1 = 6.00 to 7.00
• Cc1nnc(C)n1[C@@H]1C[C@@H](C)CN(c2nccc(-c3cnc4ccc(C(F)(F)F)cn34)n2)C1 = 7.00 to 8.00
• FC(F)(F)c1ccc2ncc(-c3nccc(N4CCN(Cc5cnc[nH]5)C(c5cn[nH]c5)C4)n3)n2c1 (centres unmarked) = > 8.00
• Cc1[nH]ncc1[C@H]1C[C@@H](O)CN(c2ccnc(-c3cnc4ccc(C(F)(F)F)cn34)n2)C1 = > 8.00
• CC1(C)C(=O)Nc2cc(Nc3nc4c(-c5ccc(S(C)(=O)=O)cc5)nccn4n3)ccc21 = 5.52 to 6.52
• CN(c1nccn2nc(Nc3ccc4c(c3)NC(=O)C4(C)C)nc12)C1CCOCC1 = 4.30 to 5.52
• COCCn1cc([C@H]2C[C@@H](C)CN(c3nccc(-c4cnc5ccc(C(F)(F)F)cn45)n3)C2)cn1 = 7.00 to 8.00
• CCc1cc(-c2c(Cl)cnc(NS(=O)(=O)c3cc(Cl)cnc3OC)c2Cl)cc2cnc(N)nc12 = 8.08
• Nc1ncc2cc(-c3c(F)cnc(NS(=O)(=O)c4ccccc4Cl)c3F)ccc2n1 = 6.44

Task item: Checklist item: pIC50 tested on GCN2 (Homo sapiens (Human), UniProt Q9P2K8), entry C[C@@H]1C[C@H](c2cn[nH]c2)CN(c2nccc(-c3cnc4ccc(C5CC5)cn34)n2)C1 , value?
Reply: > 8.00

Task item: Checklist item: pIC50 tested on GCN2 (Homo sapiens (Human), UniProt Q9P2K8), entry CS(=O)(=O)N1CC2(CCCN(c3ccnc(-c4cnc5ccc(C(F)(F)F)cn45)n3)C2)C1 , value?
Reply: 7.00 to 8.00

Task item: Checklist item: pIC50 tested on GCN2 (Homo sapiens (Human), UniProt Q9P2K8), entry CN(c1nccn2nc(Nc3ccc4c(c3)NC(=O)C4(C)C)nc12)C1CCCNC1 (centres unmarked) , value?
Reply: 4.30 to 5.52

Task item: Checklist item: pIC50 tested on GCN2 (Homo sapiens (Human), UniProt Q9P2K8), entry O[C@H]1CC[C@H](Nc2ncc3ncn(-c4ccc(I)c(F)c4)c3n2)C1 (relative stereo) , value?
Reply: 5.00 to 5.30

Task item: Checklist item: pIC50 tested on GCN2 (Homo sapiens (Human), UniProt Q9P2K8), entry CC(C)(C)c1ncc(CN2CCN(c3ccnc(-c4cnc5ccc(C(F)(F)F)cn45)n3)CC2c2cn[nH]c2)[nH]1 (centres unmarked) , value?
Reply: > 8.00

Task item: Checklist item: pIC50 tested on GCN2 (Homo sapiens (Human), UniProt Q9P2K8), entry C[C@@H]1CN(c2ccnc(-c3cnc4ccc(C(F)(F)F)cn34)n2)C[C@H](C)N1C(=O)CC1CCOCC1 , value?
Reply: 6.00 to 7.00

Task item: Checklist item: pIC50 tested on GCN2 (Homo sapiens (Human), UniProt Q9P2K8), entry CC1(C(N)=O)CCCN(c2ccnc(-c3cnc4ccc(C(F)(F)F)cn34)n2)C1 (centres unmarked) , value?
Reply: 7.00 to 8.00

Task item: Checklist item: pIC50 tested on GCN2 (Homo sapiens (Human), UniProt Q9P2K8), entry Fc1cc(-n2cnc3cnc(Nc4cnn(C5CCOCC5)c4)nc32)ccc1Cl , value?
Reply: > 6.00

Task item: Checklist item: pIC50 tested on GCN2 (Homo sapiens (Human), UniProt Q9P2K8), entry COc1ncc(Cl)cc1S(=O)(=O)Nc1ccc(Cl)c(-c2ccc3nc(N[C@@H]4CC[C@@H](C(N)=O)C4)ncc3c2)c1Cl , value?
Reply: 7.93

---

Reported pIC50 on GCN2 (Homo sapiens (Human), UniProt Q9P2K8) for assorted compounds, compiled from publications.
pIC50: −log10 of the molar value.

* FC(F)(F)c1ccc2ncc(-c3nccc(N4CCCC(n5ccc(C(F)(F)F)n5)C4)n3)n2c1 (centres unmarked) | 6.00 to 7.00
* COc1ncc(Cl)cc1S(=O)(=O)Nc1ccc(F)c(-c2ccc3nc(N[C@H]4CC[C@H](N(C)C)CC4)ncc3c2)c1F | 8.63
* C[C@@H]1CN(c2nccc(-c3cnc4ccc(C(F)(F)F)cn34)n2)[C@H](C)C(c2cn[nH]c2)N1 (some centres unmarked) | 7.00 to 8.00
* Cc1noc([C@H]2CN(c3ccnc(-c4cnc5ccc(C(F)F)cn45)n3)C[C@@H](C)O2)n1 | 7.00 to 8.00
* COCCNC(=O)[C@H]1C[C@H](Nc2ncc3cc(-c4c(F)ccc(NS(=O)(=O)c5cc(Cl)cnc5OC)c4F)ccc3n2)CN1 | 8.38

Task item: Checklist item: pIC50 tested on GCN2 (Homo sapiens (Human), UniProt Q9P2K8), entry CCn1cc(Nc2ncc3ncn(-c4ccc(C(=O)NCC(O)CO)cc4)c3n2)cn1 (centres unmarked) , value?
Reply: 5.30 to 6.00

Task item: Checklist item: pIC50 tested on GCN2 (Homo sapiens (Human), UniProt Q9P2K8), entry Cc1ccc2cc(-n3cnc4cnc(N[C@@H]5CC[C@@H](C(N)=O)C5)nc43)ccc2n1 , value?
Reply: > 6.00

Task item: Checklist item: pIC50 tested on GCN2 (Homo sapiens (Human), UniProt Q9P2K8), entry CC(=O)Nc1ccc(Nc2nc3cncc(-c4cnn(C)c4)n3n2)cc1C , value?
Reply: > 6.00

Task item: Checklist item: pIC50 tested on GCN2 (Homo sapiens (Human), UniProt Q9P2K8), entry c1cc(N2CCOCC2)ccc1Nc1nc2cncc(-c3cn[nH]c3)n2n1 , value?
Reply: 5.30 to 6.00

Task item: Checklist item: pIC50 tested on GCN2 (Homo sapiens (Human), UniProt Q9P2K8), entry Cc1cnc(N2C[C@@H](C)C[C@H](c3cn[nH]c3)C2)nc1-c1cnc2ccc(Cl)cn12 (stereo in doubt) , value?
Reply: 7.00 to 8.00

Task item: Checklist item: pIC50 tested on GCN2 (Homo sapiens (Human), UniProt Q9P2K8), entry CC1C(c2cn[nH]c2)N(C2COC2)CCN1c1ccnc(-c2cnc3ccc(C(F)(F)F)cn23)n1 (centres unmarked) , value?
Reply: 7.00 to 8.00
